activity at 30 min, 12.5 µM overview
- Tested on: CYP3A
- ASSAY_NOTES: CYP3A catalytic activity (erythromycin-N-demethylation), rat hepatic microsomes
- Type: in vitro ADME
- PROTOCOL_CONDITIONS: liver microsomes, pH 7.4, probe erythromycin, 12.5 µM, read-out: CYP3A catalytic activity, % of Control
MEASURED_QUANTITY: activity at 30 min, 12.5 µM (%)

>>> df
                                   molecule  assay_result
0                     CC12CCC(CC1)C(C)(C)O2           101
1          COC(=O)[C@H]1CC[C@H](C(=O)OC)CC1           102
2                              CC1(C)CCCCC1           103
3           C[C@]12CC(=O)C[C@@]1(C)CC(=O)C2          98.3
4               CCCCCC12CCC(C(=O)O)(CC1)CC2           105
5  CC1(O)CCC(C(C)(C)O)CC1 (stereo in doubt) [Trans-terpin, trans-terpin]          98.3
6   CC12CCC(CC1=O)C2(C)C (centres unmarked)           101
7     O=C(O)C1CC2C=CC1O2 (centres unmarked)           107

----------
- System: CYP3A
- ASSAY_NOTES: CYP3A catalytic activity (erythromycin-N-demethylation), possum hepatic microsomes
- Assay type: in vitro ADME, possum (Trichosurus vulpecula)
- PROTOCOL_CONDITIONS: possum (Trichosurus vulpecula), liver microsomes, pH 7.4, probe erythromycin, 25 µM, read-out: CYP3A catalytic activity, % of Control
MEASURED_QUANTITY: activity at 30 min, 25 µM (%)

In [3]: df
Out[3]:
                                   compound          measured_quantity  unit  assay_result
0                              CC1(C)CCCCC1  activity at 30 min, 25 µM     %           102
1          COC(=O)[C@H]1CC[C@H](C(=O)OC)CC1  activity at 30 min, 25 µM     %           111
2                     CC12CCC(CC1)C(C)(C)O2  activity at 30 min, 25 µM     %           102
3   CC12CCC(CC1=O)C2(C)C (centres unmarked)  activity at 30 min, 25 µM     %           104
4  CC1(O)CCC(C(C)(C)O)CC1 (stereo in doubt) [Trans-terpin, trans-terpin]  activity at 30 min, 25 µM     %           103
5               CCCCCC12CCC(C(=O)O)(CC1)CC2  activity at 30 min, 25 µM     %           111
6           C[C@]12CC(=O)C[C@@]1(C)CC(=O)C2  activity at 30 min, 25 µM     %           103
7     O=C(O)C1CC2C=CC1O2 (centres unmarked)  activity at 30 min, 25 µM     %           103

----------
- Tested on: UGT
- ASSAY_NOTES: p-nitrophenol glucuronidation, possum hepatic microsomes
- Format: in vitro ADME, possum (Trichosurus vulpecula)
- PROTOCOL_CONDITIONS: 25 µM
MEASURED_QUANTITY: p-nitrophenol glucuronidation activity (µmol/mg/min)

>>> print(df.to_string())
                                   molecule                       measured_quantity         unit  assay_result
0           C[C@]12CC(=O)C[C@@]1(C)CC(=O)C2  p-nitrophenol glucuronidation activity  µmol/mg/min          3.78
1          COC(=O)[C@H]1CC[C@H](C(=O)OC)CC1  p-nitrophenol glucuronidation activity  µmol/mg/min          3.92
2                              CC1(C)CCCCC1  p-nitrophenol glucuronidation activity  µmol/mg/min          4.03
3   CC12CCC(CC1=O)C2(C)C (stereo not drawn)  p-nitrophenol glucuronidation activity  µmol/mg/min          3.97
4  O=C(O)C1C2C=CC(C2)C1C(=O)O (stereo not drawn)  p-nitrophenol glucuronidation activity  µmol/mg/min          3.91
5  CC1(O)CCC(C(C)(C)O)CC1 (stereo in doubt) [Trans-terpin, trans-terpin]  p-nitrophenol glucuronidation activity  µmol/mg/min          3.91

----------
- System: UGT
- ASSAY_NOTES: p-nitrophenol glucuronidation, mouse hepatic microsomes
- Type: in vitro ADME
- PROTOCOL_CONDITIONS: 25 µM
Reported p-nitrophenol glucuronidation, % of Control by item:
MEASURED_QUANTITY: p-nitrophenol glucuronidation, % of Control (%)

>>> df
                                   compound  unit  assay_result
0                              CC1(C)CCCCC1     %         93.67
1   CC12CCC(CC1=O)C2(C)C (stereo not drawn)     %        100.10
2  CC1(O)CCC(C(C)(C)O)CC1 (stereo in doubt) [Trans-terpin, trans-terpin]     %         97.15
3  O=C(O)C1C2C=CC(C2)C1C(=O)O (stereo not drawn)     %        107.42
4           C[C@]12CC(=O)C[C@@]1(C)CC(=O)C2     %         95.72
5     O=C(O)C1CC2C=CC1O2 (stereo not drawn)     %         95.53
6               CCCCCC12CCC(C(=O)O)(CC1)CC2     %         90.15
7          COC(=O)[C@H]1CC[C@H](C(=O)OC)CC1     %        120.23
8                     CC12CCC(CC1)C(C)(C)O2     %         94.21

----------
- System: CYP3A
- ASSAY_NOTES: CYP3A catalytic activity (erythromycin-N-demethylation), mouse hepatic microsomes
- Type: in vitro ADME
- PROTOCOL_CONDITIONS: liver microsomes, pH 7.4, probe erythromycin, 50 µM, read-out: CYP3A catalytic activity, % of control
MEASURED_QUANTITY: activity at 30 min, 50 µM (%)

>>> df
                          compound  study_target          measured_quantity  assay_result
0  CC12CCC(CC1)C(C)(C)O2 [Cineole]         CYP3A  activity at 30 min, 50 µM          89.3

----------
- System: UGT
- ASSAY_NOTES: p-nitrophenol glucuronidation, mouse hepatic microsomes
- Format: in vitro ADME
- PROTOCOL_CONDITIONS: 12.5 µM
MEASURED_QUANTITY: p-nitrophenol glucuronidation activity (µmol/mg/min)

>>> df
                                   molecule  assay_result
0               CCCCCC12CCC(C(=O)O)(CC1)CC2          2.41
1  O=C(O)C1C2C=CC(C2)C1C(=O)O (stereo not drawn)          2.23
2          COC(=O)[C@H]1CC[C@H](C(=O)OC)CC1          2.43
3           CC12CCC(CC1)C(C)(C)O2 [Cineole]          2.00
4           C[C@]12CC(=O)C[C@@]1(C)CC(=O)C2          2.56
5    CC1(C)CCCCC1 [1,1-dimethylcyclohexane]          2.48
6  CC1(O)CCC(C(C)(C)O)CC1 (stereo in doubt) [Trans-terpin, trans-terpin]          2.44
7  CC12CCC(CC1=O)C2(C)C (stereo not drawn) [Camphor, camphor]          2.42
8     O=C(O)C1CC2C=CC1O2 (stereo not drawn)          3.46

----------
Entries annotated with measured p-nitrophenol glucuronidation activity
- Test system: UGT
- ASSAY_NOTES: p-nitrophenol glucuronidation, possum hepatic microsomes
- Assay type: in vitro ADME, possum (Trichosurus vulpecula)
- PROTOCOL_CONDITIONS: 12.5 µM
MEASURED_QUANTITY: p-nitrophenol glucuronidation activity

                      entry_smiles  study_target             assay_result
0            CC12CCC(CC1)C(C)(C)O2           UGT  4.09 ± 0.18 µmol/mg/min
1      CCCCCC12CCC(C(=O)O)(CC1)CC2           UGT  3.80 ± 0.27 µmol/mg/min
2  C[C@]12CC(=O)C[C@@]1(C)CC(=O)C2           UGT  3.77 ± 0.28 µmol/mg/min
